From: patent US4647672A

Documented degraded at 0.25 h across a set of compounds
# PROTOCOL: Blank reactions without phosphatase: acid-catalyzed release of L-ascorbate in pH 5.0 acetate buffer
# Type: physicochemical
# EXPERIMENTAL CONTEXT: 0.05 m acetate buffer, pH 5, Table I, reaction time 0.25 h, all reagents except phosphatase, 25°, read-out: L-Ascorbate Released (%), Blank
Note: state the figure and append the unit.

[[record]]
compound = "O=C1O[C@H]([C@@H](O)CO)C(O)=C1OP(=O)(O)O [ASMP, L-Ascorbate 2-phosphate]"
obs_value = "0%"


Let me know recorded degraded at 0.25 h for O=C1O[C@H]([C@@H](O)CO)C(O)=C1OP(=O)(O)OP(=O)(O)OP(=O)(O)O [ASTP, L-ascorbate 2-triphosphate] , thanks.
0%

----------
Recorded remaining at 0.25 h by entry
# PROTOCOL: physchem
# Type: physicochemical
# EXPERIMENTAL CONTEXT: tris buffer, hydrogen peroxide, pH 7, Stability (% Remaining) when reacted with aqueous hydrogen peroxide
Could you give me the number in %? Just the number is fine.

[[record]]
compound = "O=C1O[C@H]([C@@H](O)CO)C(O)=C1OP(=O)(O)OP(=O)(O)OP(=O)(O)O [ASTP, L-ascorbate 2-triphosphate]"
measured_quantity = "remaining at 0.25 h"
obs_value = 98.6


Assign remaining at 0.25 h to the following record: O=C1O[C@H]([C@@H](O)CO)C(O)=C1OP(=O)(O)O [ASMP, L-Ascorbate 2-phosphate]
98.7

Indicate the recorded remaining at 0.25 h value for this compound: O=C1O[C@H]([C@@H](O)CO)C(O)=C1O [Parent Compd, L-ascorbic acid]
56.9

----------
# PROTOCOL: Blank reactions without phosphatase: acid-catalyzed release of L-ascorbate in pH 5.0 acetate buffer
# Type: physicochemical
# EXPERIMENTAL CONTEXT: 0.05 m acetate buffer, pH 5, Table II, reaction time 3.0 h, blank without phosphatase (wheat flour), 25°, read-out: L-Ascorbate Released (%), Blank
Each entry below carries its reported degraded at 3 h.
Give just the numeric value; % need not be written.

[[record]]
compound = "O=C1O[C@H]([C@@H](O)CO)C(O)=C1OP(=O)(O)O [ASMP, L-Ascorbate 2-phosphate]"
obs_value = 4.6


Now, please, on to the next compound.
Tell us which degraded at 3 h value is on record for O=C1O[C@H]([C@@H](O)CO)C(O)=C1OP(=O)(O)OP(=O)(O)OP(=O)(O)O [ASTP, L-ascorbate 2-triphosphate]
0

----------
# PROTOCOL: Blank reactions without phosphatase: acid-catalyzed release of L-ascorbate in pH 5.0 acetate buffer
# Type: physicochemical
# EXPERIMENTAL CONTEXT: 0.05 m acetate buffer, pH 5, Table I, reaction time 8.0 h, all reagents except phosphatase, 25°, read-out: L-Ascorbate Released (%), Blank
MEASURED QUANTITY: degraded at 8 h (%)
Expressed in %, but write only the number.

[[record]]
molecule = "O=C1O[C@H]([C@@H](O)CO)C(O)=C1OP(=O)(O)O [ASMP, L-Ascorbate 2-phosphate]"
measured_quantity = "degraded at 8 h"
obs_value = 8.1


In one line, give reported degraded at 8 h of the entry O=C1O[C@H]([C@@H](O)CO)C(O)=C1OP(=O)(O)OP(=O)(O)OP(=O)(O)O [ASTP, L-ascorbate 2-triphosphate] .
0

----------
# PROTOCOL: in vitro
# Assay type: in vitro ADME, potato
# EXPERIMENTAL CONTEXT: potato, ph 5.0 acetate buffer, pH 5
# Procedure: It has also been confirmed that behavior of the 2-monophosphate ester of L-ascorbate, ASMP, towards the enzyme phosphatase is different than the behavior of the 2-triphopsphate ester, ASTP. ^1 Enzymolysis was done at 25° by stirring 200 micromoles of magnesium Lascorbate 2phosphate or ammonium Lascorbate 2triphosphate in 100 ml of 0.05 M acetate buffer (pH 5.0) containing about 400 mg of bakers' compressed yeast and 2 units of phosphatase (1 unit activity […]
MEASURED QUANTITY: metabolised at 3 h (%)
Unit % implied. Number only.

[[record]]
compound = "O=C1O[C@H]([C@@H](O)CO)C(O)=C1OP(=O)(O)OP(=O)(O)OP(=O)(O)O [ASTP, L-ascorbate 2-triphosphate]"
measured_quantity = "metabolised at 3 h"
unit_of_measure = "%"
obs_value = 0.4


Proceeding to the next compound to report its metabolised at 3 h.
Tell me its metabolised at 3 h given O=C1O[C@H]([C@@H](O)CO)C(O)=C1OP(=O)(O)O [ASMP, L-Ascorbate 2-phosphate] as the entry.
77.3

----------
# PROTOCOL: in vitro
# Type: in vitro ADME, wheat
# EXPERIMENTAL CONTEXT: wheat, wheat flour suspension, pH 5
MEASURED QUANTITY: metabolised at 1 h (%)
A number alone suffices; assume %.

[[record]]
compound = "O=C1O[C@H]([C@@H](O)CO)C(O)=C1OP(=O)(O)OP(=O)(O)OP(=O)(O)O [ASTP, L-ascorbate 2-triphosphate]"
measured_quantity = "metabolised at 1 h"
obs_value = 3.5


Kindly review the next compound as well.
Provide only the value of recorded metabolised at 1 h for O=C1O[C@H]([C@@H](O)CO)C(O)=C1OP(=O)(O)O [ASMP, L-Ascorbate 2-phosphate]
100

----------
# PROTOCOL: in vitro
# Format: in vitro ADME, potato
# EXPERIMENTAL CONTEXT: potato, ph 5.0 acetate buffer, pH 5
// values below are reported metabolised at 0.25 h
Give the number; % is assumed, so skip it.

Output measured metabolised at 0.25 h for this item: O=C1O[C@H]([C@@H](O)CO)C(O)=C1OP(=O)(O)OP(=O)(O)OP(=O)(O)O [ASTP, L-ascorbate 2-triphosphate]
0

Look up and state reported metabolised at 0.25 h for O=C1O[C@H]([C@@H](O)CO)C(O)=C1OP(=O)(O)O [ASMP, L-Ascorbate 2-phosphate]
9.3

----------
# PROTOCOL: Blank reactions without phosphatase: acid-catalyzed release of L-ascorbate in pH 5.0 acetate buffer
# Assay type: physicochemical
# EXPERIMENTAL CONTEXT: 0.05 m acetate buffer, pH 5, Table I, reaction time 0.50 h, all reagents except phosphatase, 25°, read-out: L-Ascorbate Released (%), Blank
MEASURED QUANTITY: degraded at 0.5 h (%)
Give a bare numeral; the unit % is implied.

[[record]]
compound = "O=C1O[C@H]([C@@H](O)CO)C(O)=C1OP(=O)(O)OP(=O)(O)OP(=O)(O)O [ASTP, L-ascorbate 2-triphosphate]"
obs_value = 0


Okay, next one:
Annotate the compound O=C1O[C@H]([C@@H](O)CO)C(O)=C1OP(=O)(O)O [ASMP, L-Ascorbate 2-phosphate] with its measured degraded at 0.5 h.
0

----------
# PROTOCOL: physchem
# Format: physicochemical
# EXPERIMENTAL CONTEXT: tris buffer, hydrogen peroxide, pH 7, Stability (% Remaining) when reacted with aqueous hydrogen peroxide
MEASURED QUANTITY: remaining at 1 h (%)
Unit % implied. Number only.

[[record]]
compound = "O=C1O[C@H]([C@@H](O)CO)C(O)=C1OP(=O)(O)OP(=O)(O)OP(=O)(O)O [ASTP, L-ascorbate 2-triphosphate]"
unit_of_measure = "%"
obs_value = 98.3


Please report remaining at 1 h for the following compound: O=C1O[C@H]([C@@H](O)CO)C(O)=C1OP(=O)(O)O [ASMP, L-Ascorbate 2-phosphate]
97.1

Respond only with remaining at 1 h recorded for O=C1O[C@H]([C@@H](O)CO)C(O)=C1O [Parent Compd, L-ascorbic acid]
0

----------
# PROTOCOL: in vitro
# Format: in vitro ADME, wheat
# EXPERIMENTAL CONTEXT: wheat, wheat flour suspension, pH 5
MEASURED QUANTITY: metabolised at 2 h (%)
Write down the numeric answer in % and omit the unit.

[[record]]
molecule = "O=C1O[C@H]([C@@H](O)CO)C(O)=C1OP(=O)(O)OP(=O)(O)OP(=O)(O)O [ASTP, L-ascorbate 2-triphosphate]"
measured_quantity = "metabolised at 2 h"
obs_value = 29.6


Report metabolised at 2 h for O=C1O[C@H]([C@@H](O)CO)C(O)=C1OP(=O)(O)O [ASMP, L-Ascorbate 2-phosphate]
100

----------
# PROTOCOL: physchem
# Assay type: physicochemical
# EXPERIMENTAL CONTEXT: tris buffer, hydrogen peroxide, pH 7, Stability (% Remaining) when reacted with aqueous hydrogen peroxide
MEASURED QUANTITY: remaining at 24 h (%)
Respond with the bare value in %.

Illustrative cases are given below, each with its answer.
[[record]]
compound = "O=C1O[C@H]([C@@H](O)CO)C(O)=C1O [Parent Compd, L-ascorbic acid]"
measured_quantity = "remaining at 24 h"
obs_value = 0

[[record]]
compound = "O=C1O[C@H]([C@@H](O)CO)C(O)=C1OP(=O)(O)O [ASMP, L-Ascorbate 2-phosphate]"
measured_quantity = "remaining at 24 h"
obs_value = 93.9


Please indicate remaining at 24 h recorded for O=C1O[C@H]([C@@H](O)CO)C(O)=C1OP(=O)(O)OP(=O)(O)OP(=O)(O)O [ASTP, L-ascorbate 2-triphosphate]
96.7
